B1: library; a variant is named by its letters at N, in order (parent)
chain: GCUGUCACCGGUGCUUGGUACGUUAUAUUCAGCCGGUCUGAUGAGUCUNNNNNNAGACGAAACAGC

Variants of: B1
assay explanation: normalized RNA/DNA level without ligand (relative to sTRSVctl = 100) (log10 (% of sTRSVctl)); HEK293T overexpressing SLC46A1; higher = less ribozyme self-cleavage, higher mRNA level
setup conditions: without (6R,S)-folinic acid; ligand present: no
Would you kindly list normalized RNA/DNA level without ligand (log10) for each of these variants?
Please reply with the number alone, leaving off any unit.

(Q) So what's the measured normalized RNA/DNA level without ligand (log10) for this one? GCUGUCACCGGUGCUUGGUACGUUAUAUUCAGCCGGUCUGAUGAGUCUUGAGUAAGACGAAACAGC [UGAGUA]
(A) 1.91

(Q) Now consider GCUGUCACCGGUGCUUGGUACGUUAUAUUCAGCCGGUCUGAUGAGUCUGAAACUAGACGAAACAGC [GAAACU] .
(A) 2

(Q) Now consider GCUGUCACCGGUGCUUGGUACGUUAUAUUCAGCCGGUCUGAUGAGUCUCGAAUCAGACGAAACAGC [CGAAUC] .
(A) 2.05

(Q) Now consider GCUGUCACCGGUGCUUGGUACGUUAUAUUCAGCCGGUCUGAUGAGUCUGGAAGCAGACGAAACAGC [GGAAGC] .
(A) 1.91

(Q) Now consider GCUGUCACCGGUGCUUGGUACGUUAUAUUCAGCCGGUCUGAUGAGUCUUCGCCCAGACGAAACAGC [UCGCCC] .
(A) 2.05

(Q) Now consider GCUGUCACCGGUGCUUGGUACGUUAUAUUCAGCCGGUCUGAUGAGUCUAAGGACAGACGAAACAGC [AAGGAC] .
(A) 1.97

(Q) Now consider GCUGUCACCGGUGCUUGGUACGUUAUAUUCAGCCGGUCUGAUGAGUCUUCGUUAAGACGAAACAGC [UCGUUA] .
(A) 2.01

(Q) Now consider GCUGUCACCGGUGCUUGGUACGUUAUAUUCAGCCGGUCUGAUGAGUCUUAGCGAAGACGAAACAGC [UAGCGA] .
(A) 1.92

(Q) Now consider GCUGUCACCGGUGCUUGGUACGUUAUAUUCAGCCGGUCUGAUGAGUCUCAAUAUAGACGAAACAGC [CAAUAU] .
(A) 1.95

(Q) Now consider GCUGUCACCGGUGCUUGGUACGUUAUAUUCAGCCGGUCUGAUGAGUCUGGAAAUAGACGAAACAGC [GGAAAU] .
(A) 1.98

(Q) Now consider GCUGUCACCGGUGCUUGGUACGUUAUAUUCAGCCGGUCUGAUGAGUCUCAGGCAAGACGAAACAGC [CAGGCA] .
(A) 2.02

(Q) Now consider GCUGUCACCGGUGCUUGGUACGUUAUAUUCAGCCGGUCUGAUGAGUCUUACGCCAGACGAAACAGC [UACGCC] .
(A) 2.05

(Q) Now consider GCUGUCACCGGUGCUUGGUACGUUAUAUUCAGCCGGUCUGAUGAGUCUACCCAGAGACGAAACAGC [ACCCAG] .
(A) 1.98

(Q) Now consider GCUGUCACCGGUGCUUGGUACGUUAUAUUCAGCCGGUCUGAUGAGUCUCACAGGAGACGAAACAGC [CACAGG] .
(A) 1.95

(Q) Now consider GCUGUCACCGGUGCUUGGUACGUUAUAUUCAGCCGGUCUGAUGAGUCUCGGUCGAGACGAAACAGC [CGGUCG] .
(A) 2.04

(Q) Now consider GCUGUCACCGGUGCUUGGUACGUUAUAUUCAGCCGGUCUGAUGAGUCUUUAUCAAGACGAAACAGC [UUAUCA] .
(A) 2

(Q) Now consider GCUGUCACCGGUGCUUGGUACGUUAUAUUCAGCCGGUCUGAUGAGUCUGGAAUGAGACGAAACAGC [GGAAUG] .
(A) 1.97

(Q) Now consider GCUGUCACCGGUGCUUGGUACGUUAUAUUCAGCCGGUCUGAUGAGUCUAGCGUCAGACGAAACAGC [AGCGUC] .
(A) 2.08

(Q) Now consider GCUGUCACCGGUGCUUGGUACGUUAUAUUCAGCCGGUCUGAUGAGUCUACAUACAGACGAAACAGC [ACAUAC] .
(A) 1.99

(Q) Now consider GCUGUCACCGGUGCUUGGUACGUUAUAUUCAGCCGGUCUGAUGAGUCUAGAAUAAGACGAAACAGC [AGAAUA] .
(A) 1.99

(Q) Now consider GCUGUCACCGGUGCUUGGUACGUUAUAUUCAGCCGGUCUGAUGAGUCUUAGUCCAGACGAAACAGC [UAGUCC] .
(A) 2.01

(Q) Now consider GCUGUCACCGGUGCUUGGUACGUUAUAUUCAGCCGGUCUGAUGAGUCUAAUUCGAGACGAAACAGC [AAUUCG] .
(A) 1.97

(Q) Now consider GCUGUCACCGGUGCUUGGUACGUUAUAUUCAGCCGGUCUGAUGAGUCUACCUCUAGACGAAACAGC [ACCUCU] .
(A) 2.02

(Q) Now consider GCUGUCACCGGUGCUUGGUACGUUAUAUUCAGCCGGUCUGAUGAGUCUGAGCGAAGACGAAACAGC [GAGCGA] .
(A) 2

(Q) Now consider GCUGUCACCGGUGCUUGGUACGUUAUAUUCAGCCGGUCUGAUGAGUCUAAUGCAAGACGAAACAGC [AAUGCA] .
(A) 1.99

(Q) Now consider GCUGUCACCGGUGCUUGGUACGUUAUAUUCAGCCGGUCUGAUGAGUCUGUUACUAGACGAAACAGC [GUUACU] .
(A) 2.03

(Q) Now consider GCUGUCACCGGUGCUUGGUACGUUAUAUUCAGCCGGUCUGAUGAGUCUUGAUGAAGACGAAACAGC [UGAUGA] .
(A) 1.86

(Q) Now consider GCUGUCACCGGUGCUUGGUACGUUAUAUUCAGCCGGUCUGAUGAGUCUGUAAGUAGACGAAACAGC [GUAAGU] .
(A) 1.94

(Q) Now consider GCUGUCACCGGUGCUUGGUACGUUAUAUUCAGCCGGUCUGAUGAGUCUGGCACGAGACGAAACAGC [GGCACG] .
(A) 2.05

(Q) Now consider GCUGUCACCGGUGCUUGGUACGUUAUAUUCAGCCGGUCUGAUGAGUCUAGAGCGAGACGAAACAGC [AGAGCG] .
(A) 1.78

(Q) Now consider GCUGUCACCGGUGCUUGGUACGUUAUAUUCAGCCGGUCUGAUGAGUCUAUCUAUAGACGAAACAGC [AUCUAU] .
(A) 2.02

(Q) Now consider GCUGUCACCGGUGCUUGGUACGUUAUAUUCAGCCGGUCUGAUGAGUCUAUGACGAGACGAAACAGC [AUGACG] .
(A) 1.94

(Q) Now consider GCUGUCACCGGUGCUUGGUACGUUAUAUUCAGCCGGUCUGAUGAGUCUCCUUUGAGACGAAACAGC [CCUUUG] .
(A) 2.04

(Q) Now consider GCUGUCACCGGUGCUUGGUACGUUAUAUUCAGCCGGUCUGAUGAGUCUGAGUUUAGACGAAACAGC [GAGUUU] .
(A) 2

(Q) Now consider GCUGUCACCGGUGCUUGGUACGUUAUAUUCAGCCGGUCUGAUGAGUCUUGUGUGAGACGAAACAGC [UGUGUG] .
(A) 1.59

(Q) Now consider GCUGUCACCGGUGCUUGGUACGUUAUAUUCAGCCGGUCUGAUGAGUCUCAUGACAGACGAAACAGC [CAUGAC] .
(A) 1.98

(Q) Now consider GCUGUCACCGGUGCUUGGUACGUUAUAUUCAGCCGGUCUGAUGAGUCUUUUGUAAGACGAAACAGC [UUUGUA] .
(A) 1.96

(Q) Now consider GCUGUCACCGGUGCUUGGUACGUUAUAUUCAGCCGGUCUGAUGAGUCUGAACCUAGACGAAACAGC [GAACCU] .
(A) 2.02

(Q) Now consider GCUGUCACCGGUGCUUGGUACGUUAUAUUCAGCCGGUCUGAUGAGUCUGCGUUAAGACGAAACAGC [GCGUUA] .
(A) 2

(Q) Now consider GCUGUCACCGGUGCUUGGUACGUUAUAUUCAGCCGGUCUGAUGAGUCUAAGUUAAGACGAAACAGC [AAGUUA] .
(A) 1.97

(Q) Now consider GCUGUCACCGGUGCUUGGUACGUUAUAUUCAGCCGGUCUGAUGAGUCUCAGCAGAGACGAAACAGC [CAGCAG] .
(A) 1.96

(Q) Now consider GCUGUCACCGGUGCUUGGUACGUUAUAUUCAGCCGGUCUGAUGAGUCUACUUCGAGACGAAACAGC [ACUUCG] .
(A) 1.97

(Q) Now consider GCUGUCACCGGUGCUUGGUACGUUAUAUUCAGCCGGUCUGAUGAGUCUCCACCCAGACGAAACAGC [CCACCC] .
(A) 2.04
